Kindly supply the reported inhibition at 0.1 µM values for the records listed here.
Biological target: FAAH (Rattus norvegicus, UniProt P97612)
Construct: Preparation of Rat Brain Membranes Preparations (FAAH Enzyme Solution); from tissue; host or cells: rat cerebrum (brain membrane preparation)
Sequence (P97612 whole entry): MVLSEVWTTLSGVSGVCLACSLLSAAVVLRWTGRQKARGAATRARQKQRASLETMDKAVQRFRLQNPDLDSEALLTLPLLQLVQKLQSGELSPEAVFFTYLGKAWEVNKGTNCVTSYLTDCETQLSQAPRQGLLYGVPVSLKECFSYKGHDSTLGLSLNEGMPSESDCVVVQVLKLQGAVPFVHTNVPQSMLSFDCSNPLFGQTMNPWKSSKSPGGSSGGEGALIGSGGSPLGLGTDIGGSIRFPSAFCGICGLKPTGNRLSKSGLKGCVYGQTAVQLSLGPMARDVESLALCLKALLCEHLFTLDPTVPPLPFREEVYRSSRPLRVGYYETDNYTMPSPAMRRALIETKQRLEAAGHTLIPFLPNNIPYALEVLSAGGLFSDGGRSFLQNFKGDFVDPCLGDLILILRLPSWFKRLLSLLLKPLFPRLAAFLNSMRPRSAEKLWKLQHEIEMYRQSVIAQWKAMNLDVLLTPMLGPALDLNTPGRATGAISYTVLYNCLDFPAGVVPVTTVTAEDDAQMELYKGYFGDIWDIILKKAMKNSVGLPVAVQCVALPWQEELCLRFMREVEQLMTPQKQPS
Test: Determination of FAAH inhibitory activity in rat (rat brain membrane preparations, [3H]-anandamide hydrolysis)
Format: biochemical
Conditions: rat brain membrane preparations; 100 nM test substance; read-out: FAAH Inhibition, Inhibition Rate at 100 nM
// return numeric value only (unit: %, not printed)

The compound listed as CN(C)C(=O)n1c(=O)n(C)c2cnc(CCc3ccccc3C(F)(F)F)nc21 has a reported inhibition at 0.1 µM of 100

Sample Cn1c(=O)n(C(=O)N2CCCC2)c2cnc(-c3cccnc3)nc21 ; inhibition at 0.1 µM observed: 98

inhibition at 0.1 µM in this record for COc1cccc(-c2ncc3c(n2)n(C)c(=O)n3C(=O)N2CCN(C3CCCC3)CC2)c1 : 93

The recorded inhibition at 0.1 µM for entry Cn1c(=O)n(C(=O)N2CCC2)c2nc(CCc3ccc(Cl)cc3)ncc21 equals 102

Form: compound = CN(CCCCc1ccccc1)C(=O)n1c(=O)n(C)c2nc(-c3ccccc3)ncc21 ; inhibition at 0.1 µM = 98

response.value for CCN(C)C(=O)n1c(=O)n(C)c2nc(Cc3ccccc3)ncc21 (field: inhibition at 0.1 µM) = 99

Lab book: inhibition at 0.1 µM of COc1cccc(-c2ncc3c(n2)n(C)c(=O)n3C(=O)N(C)CCC2CCOCC2)c1 noted as 107

What the record says about Cn1c(=O)n(C(=O)N2CCC2)c2nc(-c3ccc(OC(F)(F)F)cc3)ncc21 : inhibition at 0.1 µM is 104

Data point: CC(C)Cn1c(=O)n(C(=O)N2CCCC2)c2cnc(-c3ccccc3)nc21 ; inhibition at 0.1 µM = 96

GET /value?item= Cn1c(=O)n(C(=O)N2CCCC2)c2cnc(Cc3cccc(F)c3)nc21 &field=inhibition at 0.1 µM returns 100
